Source listed as patent US7323541B2.

molecular target: rat TGR23-5 expressing CHO cells (Rattus norvegicus, UniProt P0C0L6); construct: expressed in transfected cells; host or cells: CHO dhfr- cells, pAKKO-rTGR23-5, clone No. 29; assay: Intracellular Ca ion concentration increasing activity using FLIPR; format: cell-based; details: rat TGR23-5 expressing cells, calculated from graph FIG. 28
Sequence (P0C0L6 whole entry): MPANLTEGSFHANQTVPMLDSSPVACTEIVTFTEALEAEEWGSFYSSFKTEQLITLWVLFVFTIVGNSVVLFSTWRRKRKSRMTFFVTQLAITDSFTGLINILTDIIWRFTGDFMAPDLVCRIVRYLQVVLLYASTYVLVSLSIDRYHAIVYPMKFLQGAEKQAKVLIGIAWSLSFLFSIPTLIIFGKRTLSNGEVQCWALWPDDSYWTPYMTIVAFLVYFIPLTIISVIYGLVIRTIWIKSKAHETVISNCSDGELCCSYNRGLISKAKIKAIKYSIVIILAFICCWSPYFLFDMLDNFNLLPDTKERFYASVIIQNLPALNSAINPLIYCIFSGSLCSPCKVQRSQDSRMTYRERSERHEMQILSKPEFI
Where no end group is shown, it is not given here.
Measured Parameter: pEC50
On this scale, pEC50 is minus log10 of a concentration expressed in M (mol/L).

Would you mind telling me what pEC50 value was observed for SFRNGVGSGVKKTSFRRA [rat TGR23-2 ligand (1-18)] ?
7.85
